Ki values by entry
- target-or-test-system: α4β3γ2 GABAA/BzR (Homo sapiens, UniProt P18507+P48169)
- Construct: expressed in transfected cells; host or cells: LTK cells (given for XLi-093 only)
- Sequence (P48169 36-554): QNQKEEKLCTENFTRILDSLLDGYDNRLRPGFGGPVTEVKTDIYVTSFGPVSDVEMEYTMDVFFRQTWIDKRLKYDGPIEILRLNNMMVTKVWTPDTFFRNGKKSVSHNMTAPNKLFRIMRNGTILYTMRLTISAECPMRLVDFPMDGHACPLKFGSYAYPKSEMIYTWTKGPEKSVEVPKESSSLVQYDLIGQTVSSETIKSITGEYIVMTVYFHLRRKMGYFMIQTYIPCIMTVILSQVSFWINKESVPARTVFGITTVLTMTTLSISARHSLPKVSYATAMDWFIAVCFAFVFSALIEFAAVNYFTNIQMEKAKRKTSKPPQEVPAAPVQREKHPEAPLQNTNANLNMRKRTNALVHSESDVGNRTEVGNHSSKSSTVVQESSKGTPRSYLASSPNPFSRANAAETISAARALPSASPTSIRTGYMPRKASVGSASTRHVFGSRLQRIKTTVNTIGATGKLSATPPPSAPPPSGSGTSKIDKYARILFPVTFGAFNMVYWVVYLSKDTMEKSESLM
- Sequence (P28472 26-473 partner): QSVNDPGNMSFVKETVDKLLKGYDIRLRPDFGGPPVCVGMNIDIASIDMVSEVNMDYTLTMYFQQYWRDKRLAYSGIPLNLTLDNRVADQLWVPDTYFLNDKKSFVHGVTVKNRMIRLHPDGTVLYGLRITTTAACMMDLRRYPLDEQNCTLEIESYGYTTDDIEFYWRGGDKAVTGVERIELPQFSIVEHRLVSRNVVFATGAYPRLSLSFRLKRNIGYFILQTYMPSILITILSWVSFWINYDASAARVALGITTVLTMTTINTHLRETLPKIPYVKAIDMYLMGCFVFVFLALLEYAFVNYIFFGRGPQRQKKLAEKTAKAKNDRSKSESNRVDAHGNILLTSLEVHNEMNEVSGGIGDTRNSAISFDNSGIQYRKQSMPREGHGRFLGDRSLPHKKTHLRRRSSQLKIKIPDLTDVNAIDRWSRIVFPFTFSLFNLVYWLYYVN
- Sequence (P18507 40-475): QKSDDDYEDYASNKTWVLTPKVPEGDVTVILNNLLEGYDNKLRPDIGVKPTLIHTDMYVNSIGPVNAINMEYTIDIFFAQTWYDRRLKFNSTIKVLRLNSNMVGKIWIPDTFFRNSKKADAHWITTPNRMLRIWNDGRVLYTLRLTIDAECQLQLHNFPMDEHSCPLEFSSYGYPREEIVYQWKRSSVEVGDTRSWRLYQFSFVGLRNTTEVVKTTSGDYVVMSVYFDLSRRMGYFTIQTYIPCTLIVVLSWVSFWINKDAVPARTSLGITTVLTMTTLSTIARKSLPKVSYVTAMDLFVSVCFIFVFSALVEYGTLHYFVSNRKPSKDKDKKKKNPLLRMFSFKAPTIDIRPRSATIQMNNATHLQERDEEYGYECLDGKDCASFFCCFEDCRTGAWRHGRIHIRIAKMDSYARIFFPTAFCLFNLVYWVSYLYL
- assay-overview: biochemical
- Format: binding
Number plus unit, in that order.

[
  {
    "compound": "CC(C)(C)OC(=O)c1cc2c(cn1)[nH]c1ccc(C#C[Si](C)(C)C)cc12 [WY-B-14 (WYS7)]",
    "Ki": "2000 nM"
  },
  {
    "compound": "C#Cc1ccc2c(c1)C(=O)N(C)Cc1c(C(=O)OCC)ncn1-2 [RY-080 C17H15N3O3]",
    "Ki": "5.3 nM"
  },
  {
    "compound": "C#Cc1ccc2[nH]c3cnc(C(=O)OC(C)(C)C)cc3c2c1 [WY-A-99-2 (WYS8)]",
    "Ki": "2000 nM"
  },
  {
    "compound": "O=C(OCC(F)(F)F)c1cc2c(cn1)[nH]c1ccc(I)cc12 [WY-B-20]",
    "Ki": "2000 nM"
  },
  {
    "compound": "C#Cc1ccc2c(c1)C(c1ccccc1)=NCc1c(C(=O)OCCCOC(=O)c3ncn4c3CN=C(c3ccccc3)c3cc(C#C)ccc3-4)ncn1-2 [compound 63]",
    "Ki": "5000 nM"
  }
]

Problem: Would you kindly share the measured Ki for CCOC(=O)c1cc2c(cn1)[nH]c1ccc(C#C[Si](C)(C)C)cc12 [WY-B-99-1] ?
Solution: 2000 nM

Problem: Return reported Ki; argument: CC(C)(C)OC(=O)c1cc2c(cn1)[nH]c1ccc(C(C)(C)C)cc12 [CM-A82a]
Solution: 1000 nM
